meta.source: patent US20250250357A1

Target: T1, human MSLN-FL-his protein (human, UniProt Q13421 296-580)
T1 construct: also called human MSLN full-length protein; hMSLN-FL-his; not shown: His tag
T1 sequence (Q13421 other isoform, or with tags, fused parts or gaps): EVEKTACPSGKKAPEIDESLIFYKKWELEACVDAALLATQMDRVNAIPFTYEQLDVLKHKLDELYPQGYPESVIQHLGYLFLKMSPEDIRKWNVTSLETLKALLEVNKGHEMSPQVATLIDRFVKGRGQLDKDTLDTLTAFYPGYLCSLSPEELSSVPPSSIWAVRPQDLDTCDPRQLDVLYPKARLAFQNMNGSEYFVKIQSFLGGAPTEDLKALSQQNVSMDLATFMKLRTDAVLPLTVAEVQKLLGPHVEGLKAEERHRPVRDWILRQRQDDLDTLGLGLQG
Test: ELISA, coated antigen; antibody 0.001 nM
As shown below, each of these binders has a reported OD450 value.
test.readout: OD450 (OD450)

binder="S009-F4-94.15 (antibody, human IgG1, kappa, V domains shown, Human-murine chimeric antibody, human IgG1/kappa constant regions) VH: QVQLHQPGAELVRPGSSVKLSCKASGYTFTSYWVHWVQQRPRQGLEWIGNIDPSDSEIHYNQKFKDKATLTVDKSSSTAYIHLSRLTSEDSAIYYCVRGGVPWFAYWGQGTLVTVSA VL: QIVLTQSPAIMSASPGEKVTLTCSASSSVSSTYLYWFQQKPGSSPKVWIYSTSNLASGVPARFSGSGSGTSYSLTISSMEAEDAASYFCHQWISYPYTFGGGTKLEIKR" test_readout=OD450 measurement_unit=OD450 numeric_value=0.13
binder="S009-F4-127.10 (antibody, human IgG1, kappa, V domains shown, Human-murine chimeric antibody, human IgG1/kappa constant regions) VH: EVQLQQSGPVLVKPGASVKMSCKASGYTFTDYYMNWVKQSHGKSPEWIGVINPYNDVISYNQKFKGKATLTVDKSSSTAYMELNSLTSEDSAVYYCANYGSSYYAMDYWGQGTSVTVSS VL: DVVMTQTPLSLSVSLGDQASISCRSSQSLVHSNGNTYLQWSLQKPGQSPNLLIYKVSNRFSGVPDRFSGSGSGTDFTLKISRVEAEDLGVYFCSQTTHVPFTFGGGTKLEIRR" test_readout=OD450 measurement_unit=OD450 numeric_value=0.06
binder="S009-F6-62.5 (antibody, human IgG1, kappa, V domains shown, Human-murine chimeric antibody, human IgG1/kappa constant regions) VH: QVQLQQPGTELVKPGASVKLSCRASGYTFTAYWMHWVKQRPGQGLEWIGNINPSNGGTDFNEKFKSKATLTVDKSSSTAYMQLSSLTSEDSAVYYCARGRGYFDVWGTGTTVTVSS VL: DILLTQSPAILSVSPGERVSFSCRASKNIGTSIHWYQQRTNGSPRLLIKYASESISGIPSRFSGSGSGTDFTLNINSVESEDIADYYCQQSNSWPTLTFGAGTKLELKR" test_readout=OD450 measurement_unit=OD450 numeric_value=0.27
